Attribute: log10 of solubility kinetic
Experiment: physchem
Type: physicochemical
Conditions: pH 7.4, aqueous buffer, kinetic from dmso stock
Observation type: log10 of solubility kinetic (log10 of the value in µM)

Structure smiles string: CCOC(=O)c1nc(C)oc1NC(=O)c1c(F)cc(F)c(F)c1F
log10 of solubility kinetic: 2.37
--
Structure smiles string: Cc1nc(C(=O)OC(C)(C)C)c(NC(=O)c2c(F)c(F)c(F)c(F)c2F)o1
log10 of solubility kinetic: 2.10
--
Structure smiles string: CN(C)c1ncnc2oc(-c3c(F)c(F)c(F)c(F)c3F)nc12
log10 of solubility kinetic: 0.00
--
Structure smiles string: Fc1c(F)c(F)c(-c2nc3cncnc3s2)c(F)c1F
log10 of solubility kinetic: 2.01
--
Structure smiles string: COC(=O)c1cnccc1NC(=O)c1c(F)c(F)c(F)c(F)c1F
log10 of solubility kinetic: 2.05
--
Structure smiles string: CCOC(=O)c1nc(-c2ccccc2)oc1NC(=O)c1c(F)c(F)c(F)c(F)c1F
log10 of solubility kinetic: 1.32
--
Structure smiles string: Cc1nc(-c2ncco2)c(NC(=O)c2c(F)c(F)c(F)c(F)c2F)o1
log10 of solubility kinetic: 2.37
--
Structure smiles string: CCOC(=O)c1nc(C)oc1NC(=O)c1cc(F)c(F)c(F)c1F
log10 of solubility kinetic: 2.13
--
Structure smiles string: CNc1ncnc2oc(-c3c(F)c(F)c(F)c(F)c3F)nc12
log10 of solubility kinetic: 2.36
--
Structure smiles string: CCOC(=O)c1nc(C)oc1NCc1c(F)c(F)c(F)c(F)c1F
log10 of solubility kinetic: 1.36
--
Structure smiles string: CCOC(=O)c1nc(COC)oc1NC(=O)c1c(F)c(F)c(F)c(F)c1F
log10 of solubility kinetic: 2.36
--
Structure smiles string: Cc1nnc(-c2nc(C)oc2NC(=O)c2c(F)c(F)c(F)c(F)c2F)o1
log10 of solubility kinetic: 2.24
--
Structure smiles string: COC(=O)c1nc(C)oc1NC(=O)c1c(F)c(F)c(F)c(F)c1F
log10 of solubility kinetic: 2.37
--
Structure smiles string: CCOC(=O)c1nc(N(C)C)oc1NC(=O)c1c(F)c(F)c(F)c(F)c1F
log10 of solubility kinetic: 2.34
--
Structure smiles string: CCN(CC)c1ncnc2sc(-c3c(F)c(F)c(F)c(F)c3F)nc12
log10 of solubility kinetic: -0.85
--
Structure smiles string: CCOC(=O)c1nc(C)oc1NC(=O)c1c(F)c(F)c(F)c(F)c1F
log10 of solubility kinetic: 2.31
--
Structure smiles string: CCOC(=O)c1nc(C(C)C)oc1NC(=O)c1c(F)c(F)c(F)c(F)c1F
log10 of solubility kinetic: 2.29
--
Structure smiles string: COC(=O)c1c(C)noc1NC(=O)c1c(F)c(F)c(F)c(F)c1F
log10 of solubility kinetic: 2.38
--
Structure smiles string: Cc1nc(C(=O)O)c(NC(=O)c2c(F)c(F)c(F)c(F)c2F)o1
log10 of solubility kinetic: 2.40
--
Structure smiles string: CC(=O)c1nc(C)oc1NC(=O)c1c(F)c(F)c(F)c(F)c1F
log10 of solubility kinetic: 2.38
--
Structure smiles string: Cc1nc(C(=O)N(C)C)c(NC(=O)c2c(F)c(F)c(F)c(F)c2F)o1
log10 of solubility kinetic: 2.38
--
Structure smiles string: CN(C)c1ncnc2c1nc(-c1c(F)c(F)c(F)c(F)c1F)n2C
log10 of solubility kinetic: 1.41

* * *

The following molecules are listed with their measured MIC values.
System: M. tuberculosis (H37Rv)
Assay: microbe, parasite or virus in culture
Type: cell-based, Mycobacterium tuberculosis
Conditions: Mycobacterium tuberculosis, H37RV; read-out: Wk2_ 7H9/DPPC/ cholesterol/BSA/ Tyloxapol MIC

Structure smiles string: COC(=O)c1cccnc1NC(=O)c1c(F)c(F)c(F)c(F)c1F
Tgt: M. tuberculosis (H37Rv)
Qualifier symbol: >
MIC / µM: 50

Structure smiles string: CNc1ncnc2oc(-c3c(F)c(F)c(F)c(F)c3F)nc12
Tgt: M. tuberculosis (H37Rv)
Qualifier symbol: >
MIC / µM: 50

Structure smiles string: Fc1c(F)c(F)c(-c2nc3c(N4CCOCC4)ncnc3s2)c(F)c1F
Tgt: M. tuberculosis (H37Rv)
Qualifier symbol: =
MIC / µM: 0.6

Structure smiles string: CN(C)c1nccc2oc(-c3c(F)c(F)c(F)c(F)c3F)nc12
Tgt: M. tuberculosis (H37Rv)
Qualifier symbol: =
MIC / µM: 9.4

Structure smiles string: CCOC(=O)c1nc(C)oc1NC(=O)c1c(F)c(F)c(F)c(F)c1F
Tgt: M. tuberculosis (H37Rv)
Qualifier symbol: =
MIC / µM: 0.6

Structure smiles string: Fc1c(F)c(F)c(-c2nc3cncnc3s2)c(F)c1F
Tgt: M. tuberculosis (H37Rv)
Qualifier symbol: =
MIC / µM: 6.3

Structure smiles string: CN(C)c1ncnc2oc(-c3c(F)c(F)c(F)c(F)c3F)nc12
Tgt: M. tuberculosis (H37Rv)
Qualifier symbol: =
MIC / µM: 1.4

Structure smiles string: Cc1ncc(NC(=O)c2c(F)c(F)c(F)c(F)c2F)o1
Tgt: M. tuberculosis (H37Rv)
Qualifier symbol: >
MIC / µM: 50

* * *

Assay type: in vitro ADME, mouse
Conditions: mouse
Observation type: Hepatocyte Cli (mL/min/g)

Compound: Cc1nnc(-c2nc(C)oc2NC(=O)c2c(F)c(F)c(F)c(F)c2F)o1 [Compound 42]
Qualifier symbol: =
Measured value: 2.5

Compound: Cc1noc(-c2nc(C)oc2NC(=O)c2c(F)c(F)c(F)c(F)c2F)n1 [Compound 43]
Qualifier symbol: =
Measured value: 3.4

Compound: Cc1nc(C(=O)O)c(NC(=O)c2c(F)c(F)c(F)c(F)c2F)o1 [Compound 38]
Qualifier symbol: =
Measured value: 1.3

Compound: CCOC(=O)c1nc(CN(C)C)oc1NC(=O)c1c(F)c(F)c(F)c(F)c1F [Compound 35]
Qualifier symbol: =
Measured value: 4.7

Compound: Oc1ncnc2oc(-c3c(F)c(F)c(F)c(F)c3F)nc12 [Compound 15, Oc1ncnc2oc(nc12)-c1c(c(c(c(c1F)F)F)F)F]
Qualifier symbol: >
Measured value: 50

Compound: CC(=O)c1nc(C)oc1NC(=O)c1c(F)c(F)c(F)c(F)c1F [Compound 39]
Qualifier symbol: =
Measured value: 8.6

Compound: CCOC(=O)c1nc(C)oc1NCc1c(F)c(F)c(F)c(F)c1F [Compound 29]
Qualifier symbol: >
Measured value: 50

Compound: CCOC(=O)c1nc(C)oc1NC(=O)c1c(F)c(F)c(F)c(F)c1F [Compound 24]
Qualifier symbol: =
Measured value: 12

Compound: COC(=O)c1cnccc1NC(=O)c1c(F)c(F)c(F)c(F)c1F [Compound 16]
Qualifier symbol: >
Measured value: 50

Compound: CN(C)c1ccnc2oc(-c3c(F)c(F)c(F)c(F)c3F)nc12 [Compound 13]
Qualifier symbol: >
Measured value: 50

Compound: CNc1ncnc2oc(-c3c(F)c(F)c(F)c(F)c3F)nc12 [Compound 12, CNc1ncnc2oc(nc12)-c1c(c(c(c(c1F)F)F)F)F]
Qualifier symbol: =
Measured value: 4.7

Compound: COC(=O)c1c(C)noc1NC(=O)c1c(F)c(F)c(F)c(F)c1F [Compound 22]
Qualifier symbol: =
Measured value: 46

Compound: CCOC(=O)c1nc(C)oc1NC(=O)c1cc(F)c(F)c(F)c1F [Compound 25]
Qualifier symbol: =
Measured value: 17

Compound: Cc1nc(C(=O)N(C)C)c(NC(=O)c2c(F)c(F)c(F)c(F)c2F)o1 [Compound 40]
Qualifier symbol: =
Measured value: 7.3

Compound: CN(C)c1nccc2oc(-c3c(F)c(F)c(F)c(F)c3F)nc12 [Compound 14]
Qualifier symbol: >
Measured value: 50

Compound: CCOC(=O)c1nc(C(C)C)oc1NC(=O)c1c(F)c(F)c(F)c(F)c1F [Compound 31]
Qualifier symbol: =
Measured value: 13

Compound: CCOC(=O)c1nc(N(C)C)oc1NC(=O)c1c(F)c(F)c(F)c(F)c1F [Compound 32]
Qualifier symbol: =
Measured value: 22

* * *

Assay type: in vitro ADME, mouse
Details: CD1, mouse
Entries annotated with measured Microsomal Cli

Structure smiles string: CN(C)c1ncnc2oc(-c3c(F)c(F)c(F)c(F)c3F)nc12
Microsomal Cli: >50 mL/min/g
//
Structure smiles string: CCOC(=O)c1nc(C)oc1NC(=O)c1cc(F)c(F)c(F)c1F
Microsomal Cli: 5.1 mL/min/g
//
Structure smiles string: CCN(CC)c1ncnc2sc(-c3c(F)c(F)c(F)c(F)c3F)nc12
Microsomal Cli: 26 mL/min/g
//
Structure smiles string: COC(=O)c1c(C)noc1NC(=O)c1c(F)c(F)c(F)c(F)c1F
Microsomal Cli: 3.8 mL/min/g
//
Structure smiles string: Cc1nc(-c2ncco2)c(NC(=O)c2c(F)c(F)c(F)c(F)c2F)o1
Microsomal Cli: 0.5 mL/min/g
//
Structure smiles string: COC(=O)c1ccncc1NC(=O)c1c(F)c(F)c(F)c(F)c1F
Microsomal Cli: 27 mL/min/g
//
Structure smiles string: Fc1c(F)c(F)c(-c2nc3cncnc3s2)c(F)c1F
Microsomal Cli: 18 mL/min/g
//
Structure smiles string: CN(C)c1ncnc2sc(-c3cc(F)c(F)c(F)c3)nc12
Microsomal Cli: >50 mL/min/g
